# experimentalSystem: CaAbp1-D2
# protocolDescription: SPOT peptide array binding signal intensity (averaged, normalized) (arbitrary units (background-subtracted, floor 0; scale differs between SH3 domains)); higher = stronger binding of the SH3 domain to the peptide
The class of a record is decided solely by its measured SPOT peptide array binding signal intensity; consult class 1 (below 300), class 2 (300 to below 600), class 3 (600 or more)

> print(dat)
             binder  category
 1  QNTPPLPPKPKSPHL   class 1
 2  FTLPPPPPPPGLDEL   class 1
 3  RRARRQMGIPTISQV   class 3
 4  RRASLFPRDPKRLRP   class 2
 5  LKRITSPPLPPRADS   class 1
 6  LRWRHKFFLPAIAAI   class 2
 7  NSVPIMPTLPPRPYI   class 1
 8  VQPTAAPATPPRHIS   class 1
 9  QHQQRQPKRPKRYSL   class 3
10  NMLKKKPLKKPLKRF   class 3
11  QLLNPNRRAPRRPLS   class 2
12  RRRIAYPFYPFKKLG   class 1
13  FIRKRAPTPPAPSRS   class 3
14  NMLSRPRLAKLPSIR   class 3
